# key: entry, value: growth
# Tested on: LOX IMVI melanoma
# measurement-notes: NCI-60 one-dose screen, 48 h (100 = growth as untreated, 0 = no growth, -100 = all killed)
# condition-parameters: 10 µM
The panel holds about 83,000 compounds, 20% with a hit somewhere; the sample as a whole holds those more often.
Reply numerically in %, unit not repeated.

// known answers, use as guide
- molecule: "CC(=O)Nc1ccc(C(=O)c2ccc(S(=O)(=O)Nc3ccccc3)cc2)cc1"
  growth (%): 91.6
- molecule: "COc1ccc(Br)c2c1C(=O)CC2"
  growth (%): 104
- molecule: "CCNC(=O)Oc1ccc[nH]c1=O"
  growth (%): 99.1

Sure, the documented growth for `Cn1c(=O)c2[nH]c(CC(=O)O)nc2n(C)c1=O` is 101

Sure, the documented growth for `CC(C)(N)CO[C@H]1C[C@H]2CC[C@@]1(C)C2(C)C` is 98.6

Sure, the documented growth for CCCC1OC(c2ccco2)OCC1CC (configuration not stated) is 95.1

Sure, the documented growth for `CC(=O)c1cccc(N(C)S(=O)(=O)c2ccc(C)cc2)c1` is 82.3
